Test: Drying behaviour of crystallisates in dependence on residual moisture and product purity (tempering in sealed vials, visual points classification)
Assay type: physicochemical
Design: key: 5 points=sample unchanged; 4 points=sample compacted/started to dissolve; 3 points=sample visibly started to dissolve; 2 points=sample cloudy highly viscous solution; 1 point=sample dissolved to clear solution
Conditions: Temperature 75 °C, test duration 5 h, sealed vial, shaken
quantity_measured: Visual classification at the end of the tempering step (points system)

Guide cases for Visual classification at the end of the tempering step (points system), answers given:
Entry O=P(O)(O)CN(CCN(CP(=O)(O)O)CP(=O)(O)O)CCN(CP(=O)(O)O)CP(=O)(O)O [unwashed quality 19 [% by mass] residual moisture] needs its Visual classification at the end of the tempering step (points system) filled in; supply it.
2

Let me know recorded Visual classification at the end of the tempering step (points system) for O=P(O)(O)CN(CCN(CP(=O)(O)O)CP(=O)(O)O)CCN(CP(=O)(O)O)CP(=O)(O)O [unwashed quality 36 [% by mass] residual moisture] , thanks.
1

Check the records and state Visual classification at the end of the tempering step (points system) for O=P(O)(O)CN(CCN(CP(=O)(O)O)CP(=O)(O)O)CCN(CP(=O)(O)O)CP(=O)(O)O [unwashed quality 51 [% by mass] residual moisture]
1

Identify the reported Visual classification at the end of the tempering step (points system) for the following entry. O=P(O)(O)CN(CCN(CP(=O)(O)O)CP(=O)(O)O)CCN(CP(=O)(O)O)CP(=O)(O)O [washed quality 11 [% by mass] residual moisture]
5

---
Please look at this compound and report its Visual classification at the end of the tempering step (points system): O=P(O)(O)CN(CCN(CP(=O)(O)O)CP(=O)(O)O)CCN(CP(=O)(O)O)CP(=O)(O)O [unwashed quality 40 [% by mass] residual moisture]
1

Given the compound O=P(O)(O)CN(CCN(CP(=O)(O)O)CP(=O)(O)O)CCN(CP(=O)(O)O)CP(=O)(O)O [unwashed quality 31 [% by mass] residual moisture] , write its reported Visual classification at the end of the tempering step (points system).
1

For the compound O=P(O)(O)CN(CCN(CP(=O)(O)O)CP(=O)(O)O)CCN(CP(=O)(O)O)CP(=O)(O)O [unwashed quality 47 [% by mass] residual moisture] , give its reported Visual classification at the end of the tempering step (points system).
1

Report Visual classification at the end of the tempering step (points system), nothing else, for this compound: O=P(O)(O)CN(CCN(CP(=O)(O)O)CP(=O)(O)O)CCN(CP(=O)(O)O)CP(=O)(O)O [unwashed quality 24 [% by mass] residual moisture]
1
